- assay info: NCI Yeast Anticancer Drug Screen. Data for the sgs1 mgt1 strain (AID 161);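 also: 0% = growth of cultures given vehicle only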
- condition notes: S. cerevisiae sgs1 mgt1 strain, at 50.0 µM (retest, dose inferred, filed as 5.0), active compounds read high
- Description: Growth inhibition of yeast strains with defined genetic alterations is measured as a screen for potential anti-cancer activity. Selected strains with alterations in DNA damage repair or cell cycle control were exposed to compounds and growth inhibition was measured relative to vehicle treated controls. The strain used in this assay is sgs1 mgt1
This is part of a sample that, as a whole, favours compounds with a hit. Of some 79,000 tested, about 15% had one in any assay.
The threshold is inclusive: growth inhibition of exactly 40% counts as 1.0; values below receive 0.0.

Please review the entries below; each comes with its answer.
[[record]]
compound = "CC(C)(C)[CH2][Hg][Cl]"
cat = 1.0

[[record]]
compound = "Nc1nc(-c2ccccc2)c(-c2ccccc2)[se]1"
cat = 0.0

[[record]]
compound = "N#CC(C#N)=Cc1ccc(C#N)cc1"
cat = 1.0

[[record]]
compound = "O=S(=O)(F)c1ccc(Cl)cc1C[P+](c1ccccc1)(c1ccccc1)c1ccccc1"
cat = 1.0

[[record]]
compound = "CCC1CC2C3Cc4ccc(OC)c(O)c4C2(CCN3C)CC1=O (stereo not drawn)"
cat = 0.0

[[record]]
compound = "CN1CCN(c2ccc([N+](=O)[O-])c3no[n+]([O-])c23)CC1"
cat = 1.0

[[record]]
compound = "COC1=[C]([Hg][Br])C(OC)OC1OC (stereo not drawn)"
cat = 1.0

[[record]]
compound = "CC(C)C(=O)CP(=O)(O)O"
cat = 0.0

[[record]]
compound = "C[n+]1c(/C=C/c2ccc(O)c3ncccc23)[se]c2ccccc21"
cat = 1.0

[[record]]
compound = "Oc1ccc(Br)cc1C1N(Cc2ccc(N(CCCl)CCCl)cc2Cl)CCCN1Cc1ccc(N(CCCl)CCCl)cc1Cl"
cat = 1.0


Form field: growth inhibition at least 40%? Entry: Nc1nc(N)c(-c2ccc(Cl)c(Cl)c2)c(CCc2ccc(CNC(=O)c3cc(S(=O)(=O)F)ccc3Cl)cc2)n1 1.0

In plain terms: is recorded growth inhibition at least 40% for c1ccc(NC2=NCCN2)nc1 ? 1.0

Is the recorded value of growth inhibition equal to or greater than 40% for this compound? CC(C(=O)C1CCCCC1)[n+]1ccccc1 (stereo not drawn) 0.0
